The origin of these recorded values is the NIST ThermoML archive (doi:10.1021/acs.jced.5b00285).

TEST_CONDITIONS: 398.15 K; 101.33 kPa; Liquid; Alternating current cell with electrodes
PROPERTY_LABEL: electrical conductivity (S/m)
Please state the figure in S/m; there is no need to write the unit.

Solved cases (3 shown):
molecule=CCCCCC[n+]1ccn(C)c1.O=S(=O)([N-]S(=O)(=O)C(F)(F)F)C(F)(F)F property_label="electrical conductivity" result_unit=S/m observed=2.53
molecule="CC(=O)[O-].CCn1cc[n+](C)c1 [1-ethyl-3-methylimidazolium acetate]" property_label="electrical conductivity" result_unit=S/m observed=5.31
molecule=CCCCCCCCn1cc[n+](C)c1.O=S(=O)([N-]S(=O)(=O)C(F)(F)F)C(F)(F)F property_label="electrical conductivity" result_unit=S/m observed=1.85

Q: Give recorded electrical conductivity. CCCCn1cc[n+](C)c1.O=S(=O)([N-]S(=O)(=O)C(F)(F)C(F)(F)F)C(F)(F)C(F)(F)F [1-butyl-3-methylimidazolium bis(perfluoroethylsulfonyl)imide]
A: 2.16
